Tested on: 565726-208-R1-J5-PDC complex spheroids, growth inhibition
experiment_description: Anticancer human tumor 565726-208-R1-J5-PDC patient-derived pancreatic adenocarcinoma cell line growth inhibition [RAS]
condition_info: second compound 0.00316 µM; first compound 1 µM; active compounds read low
Let's look at some compounds and their measured viability, T/C.
Note: unit % is implicit; provide only the numeric part.

Sample records with viability, T/C:
compound="CCC(CC)c1cc(NC2CCC(N)C2)n2nccc2n1 (stereo not drawn) + C=CC(=O)N1CCN(c2nc(OCC3CCCN3C)nc3c(F)c(-c4nc(N)cc(C)c4C(F)(F)F)c(Cl)cc23)C(C)C1" target_or_test_system="565726-208-R1-J5-PDC complex spheroids, growth inhibition" experimental_endpoint="viability, T/C" measurement=110
compound="C=CC(=O)Nc1cc(Nc2nccc(-c3cn(C)c4ccccc34)n2)c(OC)cc1N(C)CCN(C)C + C=CC(=O)N1CCN(c2nc(OCC3CCCN3C)nc3c(F)c(-c4nc(N)cc(C)c4C(F)(F)F)c(Cl)cc23)C(C)C1" target_or_test_system="565726-208-R1-J5-PDC complex spheroids, growth inhibition" experimental_endpoint="viability, T/C" measurement=121

In the following, a different compound is considered.
// returns reported viability, T/C for input Cc1nc(N2CCC3(CC2)COC(C)C3N)c(CO)nc1Sc1ccnc(N)c1Cl (stereo not drawn) + C=CC(=O)N1CCN(c2nc(OCC3CCCN3C)nc3c(F)c(-c4nc(N)cc(C)c4C(F)(F)F)c(Cl)cc23)C(C)C1
86.8

###

System: 565726-208-R1-J5-PDC complex spheroids, growth inhibition
experiment_description: Anticancer human tumor 565726-208-R1-J5-PDC cell line growth inhibition [RAS]; active means viability on the fitted dose curve at most 10% of control; inactive means the rest;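 further: spheroids exposed to compounds for seven days before readout; 100% = DMSO vehicle control viability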
condition_info: second compound 0.03 µM; first compound 3.16 µM
Text: RAS pathway inhibitors in Combinations in Complex Spheroids A high-throughput screen of multi-cell type tumor spheroids was designed to identify active combinations of RAS pathway inhibitors and targeted small molecules. Complex spheroids include a stromal component modeled by human endothelial cells (HUVEC) and fibroblasts modeled by human mesenchymal stem cells (MSCs). […] Compounds. […] If the clinical Cmax for an agent had not been determined, the highest concentration tested was 10 microM. […]
Permitted responses: Yes = active, No = inactive

Previously resolved entries follow.
molecule="CCC(CC)c1cc(NC2CCC(N)C2)n2nccc2n1 (centres undefined) + CCn1c(-c2cc(N3CCN(C)CC3)cnc2C(C)OC)c2c3cc(ccc31)-c1csc(n1)CC(NC(=O)C1CC1C)C(=O)N1CCCC(N1)C(=O)OCC(C)(C)C2" discrete_label=Yes
molecule="C[C@@H](NC(=O)c1ncnc(N)c1Cl)c1ncc(C(=O)Nc2cc(C(F)(F)F)c(Cl)cn2)s1 + CCn1c(-c2cccnc2C(C)OC)c2c3cc(ccc31)N1CCOC(CC(NC(=O)C(C(C)C)N(C)C(=O)C3(F)CCN(C(=O)C#CC(C)(C)N(C)C)CC3)C(=O)N3CCCC(N3)C(=O)OCC(C)(C)C2)C1" discrete_label=No
molecule="NC1c2ccccc2OC12CCN(c1cnc3c(N4CCCc5ncccc54)n[nH]c3n1)CC2 (centres undefined) + CCn1c(-c2cccnc2C(C)OC)c2c3cc(ccc31)N1CCOC(CC(NC(=O)C(C(C)C)N(C)C(=O)C3(F)CCN(C(=O)C#CC(C)(C)N(C)C)CC3)C(=O)N3CCCC(N3)C(=O)OCC(C)(C)C2)C1" discrete_label=No

Field: next molecule
Record lookup: outcome of this test for CC1(O)CCCC1n1c(=O)c(C(F)F)cc2cnc(NC3CCN(S(C)(=O)=O)CC3)nc21 (centres undefined) + CCn1c(-c2cc(N3CCN(C)CC3)cnc2C(C)OC)c2c3cc(ccc31)-c1csc(n1)CC(NC(=O)C1CC1C)C(=O)N1CCCC(N1)C(=O)OCC(C)(C)C2 ?
No

###

Tested on: 565726-208-R1-J5-PDC complex spheroids, growth inhibition
experiment_description: Anticancer human tumor 565726-208-R1-J5-PDC cell line growth inhibition [RAS]; active = viability on the fitted dose curve at most 10% of control; inactive = the rest;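 further: spheroids exposed to compounds for seven days before readout; 100% = DMSO vehicle control viability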
condition_info: second compound 0.00949 µM; first compound 3.16 µM
Permitted responses: 1.0 = active, 0.0 = inactive

Previously resolved entries follow.
molecule="Cc1nc(N2CCC3(CC2)COC(C)C3N)c(CO)nc1Sc1ccnc(N)c1Cl (centres undefined) + CCn1c(-c2cc(N3CCN(C)CC3)cnc2C(C)OC)c2c3cc(ccc31)-c1csc(n1)CC(NC(=O)C1CC1C)C(=O)N1CCCC(N1)C(=O)OCC(C)(C)C2" discrete_label=0.0
molecule="CC(=O)OC12COC1CC(O)C1(C)C(=O)C(O)C3=C(C)C(OC(=O)C(O)C(NC(=O)OC(C)(C)C)c4ccccc4)CC(O)(C(OC(=O)c4ccccc4)C21)C3(C)C (centres undefined) + CCn1c(-c2cccnc2C(C)OC)c2c3cc(ccc31)N1CCOC(CC(NC(=O)C(C(C)C)N(C)C(=O)C3(F)CCN(C(=O)C#CC(C)(C)N(C)C)CC3)C(=O)N3CCCC(N3)C(=O)OCC(C)(C)C2)C1" discrete_label=0.0
molecule="NC1c2ccccc2OC12CCN(c1cnc3c(N4CCCc5ncccc54)n[nH]c3n1)CC2 (centres undefined) + CCn1c(-c2cc(N3CCN(C)CC3)cnc2C(C)OC)c2c3cc(ccc31)-c1csc(n1)CC(NC(=O)C1CC1C)C(=O)N1CCCC(N1)C(=O)OCC(C)(C)C2" discrete_label=0.0

Record lookup: outcome of this test for CC(Nc1ccc2c(c1)OCCn1cc(N3C(=O)OCC3C(F)F)nc1-2)C(N)=O (centres undefined) + CCn1c(-c2cccnc2C(C)OC)c2c3cc(ccc31)N1CCOC(CC(NC(=O)C(C(C)C)N(C)C(=O)C3(F)CCN(C(=O)C#CC(C)(C)N(C)C)CC3)C(=O)N3CCCC(N3)C(=O)OCC(C)(C)C2)C1 ?
0.0

Quick one: Cc1nc(N2CCC3(CC2)COC(C)C3N)c(CO)nc1Sc1ccnc(N)c1Cl (centres undefined) + CCn1c(-c2cccnc2C(C)OC)c2c3cc(ccc31)N1CCOC(CC(NC(=O)C(C(C)C)N(C)C(=O)C3(F)CCN(C(=O)C#CC(C)(C)N(C)C)CC3)C(=O)N3CCCC(N3)C(=O)OCC(C)(C)C2)C1
0.0

Quick one: CCC(CC)c1cc(NC2CCC(N)C2)n2nccc2n1 (centres undefined) + CCn1c(-c2cc(N3CCN(C)CC3)cnc2C(C)OC)c2c3cc(ccc31)-c1csc(n1)CC(NC(=O)C1CC1C)C(=O)N1CCCC(N1)C(=O)OCC(C)(C)C2
1.0

Quick one: CC(Nc1ccc2c(c1)OCCn1cc(N3C(=O)OCC3C(F)F)nc1-2)C(N)=O (centres undefined) + CCn1c(-c2cc(N3CCN(C)CC3)cnc2C(C)OC)c2c3cc(ccc31)-c1csc(n1)CC(NC(=O)C1CC1C)C(=O)N1CCCC(N1)C(=O)OCC(C)(C)C2
0.0

Quick one: CCC(CC)c1cc(NC2CCC(N)C2)n2nccc2n1 (centres undefined) + CCn1c(-c2cccnc2C(C)OC)c2c3cc(ccc31)N1CCOC(CC(NC(=O)C(C(C)C)N(C)C(=O)C3(F)CCN(C(=O)C#CC(C)(C)N(C)C)CC3)C(=O)N3CCCC(N3)C(=O)OCC(C)(C)C2)C1
1.0

Quick one: CC1(O)CCCC1n1c(=O)c(C(F)F)cc2cnc(NC3CCN(S(C)(=O)=O)CC3)nc21 (centres undefined) + CCn1c(-c2cc(N3CCN(C)CC3)cnc2C(C)OC)c2c3cc(ccc31)-c1csc(n1)CC(NC(=O)C1CC1C)C(=O)N1CCCC(N1)C(=O)OCC(C)(C)C2
0.0

###

System: 565726-208-R1-J5-PDC complex spheroids, growth inhibition
experiment_description: Anticancer human tumor 565726-208-R1-J5-PDC cell line growth inhibition [RAS];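 further: spheroids exposed to compounds for seven days before readout; 100% = DMSO vehicle control viability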
condition_info: second compound 0.03 µM; first compound 0.0316 µM; active compounds read low
Let's look at some molecules and their measured viability, T/C.
Note: unit % is implicit; provide only the numeric part.

molecule="C=CC(=O)Nc1cc(Nc2nccc(-c3cn(C)c4ccccc34)n2)c(OC)cc1N(C)CCN(C)C + CCn1c(-c2cccnc2C(C)OC)c2c3cc(ccc31)N1CCOC(CC(NC(=O)C(C(C)C)N(C)C(=O)C3(F)CCN(C(=O)C#CC(C)(C)N(C)C)CC3)C(=O)N3CCCC(N3)C(=O)OCC(C)(C)C2)C1" experimental_endpoint="viability, T/C" result_units=% measurement=94
molecule="NC1c2ccccc2OC12CCN(c1cnc3c(N4CCCc5ncccc54)n[nH]c3n1)CC2 (configuration not stated) + CCn1c(-c2cc(N3CCN(C)CC3)cnc2C(C)OC)c2c3cc(ccc31)-c1csc(n1)CC(NC(=O)C1CC1C)C(=O)N1CCCC(N1)C(=O)OCC(C)(C)C2" experimental_endpoint="viability, T/C" result_units=% measurement=21.4
molecule="CC(=O)OC12COC1CC(O)C1(C)C(=O)C(O)C3=C(C)C(OC(=O)C(O)C(NC(=O)OC(C)(C)C)c4ccccc4)CC(O)(C(OC(=O)c4ccccc4)C21)C3(C)C (configuration not stated) + CCn1c(-c2cccnc2C(C)OC)c2c3cc(ccc31)N1CCOC(CC(NC(=O)C(C(C)C)N(C)C(=O)C3(F)CCN(C(=O)C#CC(C)(C)N(C)C)CC3)C(=O)N3CCCC(N3)C(=O)OCC(C)(C)C2)C1" experimental_endpoint="viability, T/C" result_units=% measurement=16.3

// returns reported viability, T/C for input CC(C)NCC(C(=O)N1CCN(c2ncnc3c2C(C)CC3O)CC1)c1ccc(Cl)cc1 (configuration not stated) + CCn1c(-c2cccnc2C(C)OC)c2c3cc(ccc31)N1CCOC(CC(NC(=O)C(C(C)C)N(C)C(=O)C3(F)CCN(C(=O)C#CC(C)(C)N(C)C)CC3)C(=O)N3CCCC(N3)C(=O)OCC(C)(C)C2)C1
101

Quick one: O=C(c1ccc(F)c(F)c1Nc1ccc(I)cc1F)N1CC(O)([C@@H]2CCCCN2)C1 + CCn1c(-c2cc(N3CCN(C)CC3)cnc2C(C)OC)c2c3cc(ccc31)-c1csc(n1)CC(NC(=O)C1CC1C)C(=O)N1CCCC(N1)C(=O)OCC(C)(C)C2
18.2

Quick one: CC(C)n1nc(-c2ccc3oc(N)nc3c2)c2c(N)ncnc21 + CCn1c(-c2cccnc2C(C)OC)c2c3cc(ccc31)N1CCOC(CC(NC(=O)C(C(C)C)N(C)C(=O)C3(F)CCN(C(=O)C#CC(C)(C)N(C)C)CC3)C(=O)N3CCCC(N3)C(=O)OCC(C)(C)C2)C1
43

Quick one: CC1(O)CCCC1n1c(=O)c(C(F)F)cc2cnc(NC3CCN(S(C)(=O)=O)CC3)nc21 (configuration not stated) + CCn1c(-c2cc(N3CCN(C)CC3)cnc2C(C)OC)c2c3cc(ccc31)-c1csc(n1)CC(NC(=O)C1CC1C)C(=O)N1CCCC(N1)C(=O)OCC(C)(C)C2
34.2

# credit: PubChem BioAssay AID2060899
